Data origin: the supplement of paper PMC12645437

# reported log2 fold change of degron read counts; entries follow
- target system: T1, CRBN, Q96SW2;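 further: pooled lentiviral library of zinc finger degron-EGFP fusions in mCherry-positive Jurkat cells, FACS-sorted after compound exposure, with degron abundance counted by next-generation sequencing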
- T1 chain: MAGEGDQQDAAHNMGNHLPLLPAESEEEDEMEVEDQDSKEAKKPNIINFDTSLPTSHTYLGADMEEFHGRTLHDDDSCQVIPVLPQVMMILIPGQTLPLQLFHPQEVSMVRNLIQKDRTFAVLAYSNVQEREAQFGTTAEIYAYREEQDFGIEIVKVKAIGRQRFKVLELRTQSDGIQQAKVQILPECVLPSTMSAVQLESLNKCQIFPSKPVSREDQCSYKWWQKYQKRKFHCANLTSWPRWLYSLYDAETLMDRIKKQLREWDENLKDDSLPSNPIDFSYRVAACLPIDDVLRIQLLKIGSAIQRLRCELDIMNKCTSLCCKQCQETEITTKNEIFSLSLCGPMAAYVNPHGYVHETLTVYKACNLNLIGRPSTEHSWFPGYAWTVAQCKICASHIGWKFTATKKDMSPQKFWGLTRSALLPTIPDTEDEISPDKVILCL
- protocol details: log2 fold change of degron read counts, EGFP-low vs EGFP+ sorted cells (limma voom), compound-induced degradation; higher = more compound-induced degradation of the degron-EGFP fusion; degrons are variants of IKZF1/3 zinc finger 2; compound dose not given here
- details: Jurkat; 18 h; compound: compound 19 (5-tert-butyl-thalidomide)
Whole data set: some 8,300 sequences, median “log2 fold change of degron read counts, EGFP-low vs EGFP+ sorted cells (limma voom), compound-induced degradation” near -1.1, cut for the highest 2% near 3.2. Only a selection was taken, and the highest values are over-represented in it overall.
Lab note: jot the number down without any unit.

Query string: Looking for the measured log2 fold change of degron read counts of FQCDICGARFTQKGNLLRHIKL [46F_47Q_49D_50I_52G_53A_54R_55F_67L_, Q9UKT9] , can you help?
Result string: -1.01

Query string: Now try FQCEICGALFTQKGNLLRHIKL [46F_47Q_49E_50I_52G_53A_54L_55F_67L_, Q9UKT9] .
Result string: -1.22

Query string: Now try FDCEICGHGFTQKGNLLRHIKL [46F_47D_49E_50I_52G_53H_54G_55F_67L_, Q9UKT9] .
Result string: -3.03

Query string: Now try FLCEICGALFTQKGNLLRHIKL [46F_47L_49E_50I_52G_53A_54L_55F_67L_, Q9UKT9] .
Result string: -0.92

Query string: Now try FRCDICGARFTQKGNLLRHIKL [46F_47R_49D_50I_52G_53A_54R_55F_67L_, Q9UKT9] .
Result string: -1.84

Query string: Now try FICNICGAGFTQKGNLLRHIKL [46F_47I_49N_50I_52G_53A_54G_55F_67L_, Q9UKT9] .
Result string: -0.991
